- assay.comment: Viscosity responsiveness: fluorescence emission spectra of probes in glycerol and methanol
- Format: physicochemical
- test.context: excited at maximum excitation wavelength of each probe
test.readout: Emission wavelength (nm)

compound=CN(CCOC(=O)NCc1ccc(COc2nc(N)nc3[nH]cnc23)cc1)c1ccc2c(c1)sc1cc(/C=C(/C#N)C(=O)OC(C)(C)C)sc12 test_readout="Emission wavelength" measured_number=620
compound="CN(CCO)c1cc2sc(/C=C(\\C#N)C(=O)NCc3ccc(COc4nc(N)nc5[nH]cnc45)cc3)cc2s1 [Reference Probe 108, reference compound]" test_readout="Emission wavelength" measured_number=555
compound=CN1C(=O)/C(=C\c2nc3ccc(N(C)CCOC(=O)NCc4ccc(COc5nc(N)nc6[nH]cnc56)cc4)cc3o2)N=C1c1ccccc1 test_readout="Emission wavelength" measured_number=612
compound=CN(CCOC(=O)NCc1ccc(COc2nc(N)nc3[nH]cnc23)cc1)c1ccc(C#C/C=C(\C#N)c2nc3ccccc3s2)cc1 test_readout="Emission wavelength" measured_number=600
compound=CN(CCOC(=O)NCc1ccc(COc2nc(N)nc3[nH]cnc23)cc1)c1cc2sc3cc(/C=C(\C#N)c4nc5ccccc5s4)sc3c2s1 test_readout="Emission wavelength" measured_number=640
compound=CN(CCOC(=O)NCc1ccc(COc2nccc(N)n2)cc1)c1ccc2c(c1)sc1cc(/C=C(/C#N)c3nc4ccccc4o3)sc12 test_readout="Emission wavelength" measured_number=650
compound=CN(CCOC(=O)NCc1ccc(COc2nc(N)nc3[nH]cnc23)cc1)c1ccc2cc(/C=C(\C#N)c3nc4ccccc4s3)sc2c1 test_readout="Emission wavelength" measured_number=609
compound=CN(CCOC(=O)NCc1ccc(COc2nc(N)nc3[nH]cnc23)cc1)c1ccc(C#C/C=C(\C#N)c2nc3ccccc3o2)cc1 test_readout="Emission wavelength" measured_number=590
compound=CN(CCOC(=O)NCc1ccc(COc2nc(N)nc3[nH]cnc23)cc1)c1cc2sc(/C=C(\C#N)C(=O)O)cc2s1 test_readout="Emission wavelength" measured_number=555
compound=CC(C)(C)OC(=O)/C(C#N)=C/c1ccc(N(CCOC(=O)NCCCS(=O)(=O)O)CCOC(=O)NCc2ccc(COc3nc(N)nc4[nH]cnc34)cc2)cc1 test_readout="Emission wavelength" measured_number=481
compound=CN(CCOC(=O)NCc1ccc(COc2nccc(N)n2)cc1)c1ccc(C#C/C=C(\C#N)C(=O)OC(C)(C)C)cc1 test_readout="Emission wavelength" measured_number=566
compound=CN(CCOC(=O)NCc1ccc(COc2cc(Cl)nc(N)n2)cc1)c1ccc2cc(/C=C(\C#N)C(=O)OC(C)(C)C)sc2c1 test_readout="Emission wavelength" measured_number=570
compound=CN(CCOC(=O)NCc1ccc(COc2nc(N)nc3[nH]cnc23)cc1)c1cc2sc3cc(/C=C(\C#N)C(=O)OC(C)(C)C)sc3c2s1 test_readout="Emission wavelength" measured_number=620
